tested on: Escherichia coli TOP10; experiment: shrunken log2 fold change of peptide-encoding DNA abundance (4.5 h post-induction vs induction); higher = less antimicrobial activity (less host growth inhibition); conditions: time post-induction: 4.5 h; library: site-saturation at positions 5, 18, 19, 20;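 note: peptides expressed intracellularly from a pBAD plasmid library in pooled LB shake-flask culture, induced with 0.3% L-arabinose, DNA abundance read by NGS, three biological replicates, DESeq2 with apeglm shrinkage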
readoutType: shrunken log2 fold change
The answer should be written as a number, with no unit following it.

# shrunken log2 fold change (sequence: RRIRTRPPRLPRPRPRPWQPPRP ) is -0.0263

# shrunken log2 fold change (sequence: RRIRGRPPRLPRPRPRPGQRPRP ) is 0.345

# shrunken log2 fold change (sequence: RRIRLRPPRLPRPRPRPSRYPRP ) is -0.0576

# shrunken log2 fold change (sequence: RRIRVRPPRLPRPRPRPYLAPRP ) is -0.413

# shrunken log2 fold change (sequence: RRIRSRPPRLPRPRPRPTKRPRP ) is 0.294

# shrunken log2 fold change (sequence: RRIRLRPPRLPRPRPRPMYRPRP ) is 0.0136

# shrunken log2 fold change (sequence: RRIRYRPPRLPRPRPRPSVYPRP ) is -0.888

# shrunken log2 fold change (sequence: RRIRTRPPRLPRPRPRPSWHPRP ) is -0.23

# shrunken log2 fold change (sequence: RRIRDRPPRLPRPRPRPDIIPRP ) is 0.221

# shrunken log2 fold change (sequence: RRIRLRPPRLPRPRPRPQPMPRP ) is 0.216

# shrunken log2 fold change (sequence: RRIRPRPPRLPRPRPRPYNCPRP ) is -1.4

# shrunken log2 fold change (sequence: RRIRLRPPRLPRPRPRPYFEPRP ) is -0.453

# shrunken log2 fold change (sequence: RRIRFRPPRLPRPRPRPPLFPRP ) is 0.273

# shrunken log2 fold change (sequence: RRIRFRPPRLPRPRPRPRAIPRP ) is 0.0543

# shrunken log2 fold change (sequence: RRIRRRPPRLPRPRPRPCIPPRP ) is -0.867

# shrunken log2 fold change (sequence: RRIRFRPPRLPRPRPRPKFNPRP ) is -0.588

# shrunken log2 fold change (sequence: RRIRKRPPRLPRPRPRPGRAPRP ) is 0.786

# shrunken log2 fold change (sequence: RRIRHRPPRLPRPRPRPIFCPRP ) is -0.184

# shrunken log2 fold change (sequence: RRIRARPPRLPRPRPRPKHLPRP ) is 0.417

# shrunken log2 fold change (sequence: RRIRERPPRLPRPRPRPCDRPRP ) is -0.187

# shrunken log2 fold change (sequence: RRIRIRPPRLPRPRPRPKMFPRP ) is 0.0072

# shrunken log2 fold change (sequence: RRIRSRPPRLPRPRPRPDGFPRP ) is -0.0636

# shrunken log2 fold change (sequence: RRIRERPPRLPRPRPRPPRYPRP ) is -0.202

# shrunken log2 fold change (sequence: RRIRHRPPRLPRPRPRPRCAPRP ) is 0.189

# shrunken log2 fold change (sequence: RRIRFRPPRLPRPRPRPKAIPRP ) is -0.0919

# shrunken log2 fold change (sequence: RRIRIRPPRLPRPRPRPKDDPRP ) is -0.254

# shrunken log2 fold change (sequence: RRIRDRPPRLPRPRPRPYWNPRP ) is -0.602

# shrunken log2 fold change (sequence: RRIRPRPPRLPRPRPRPNIFPRP ) is -0.189

# shrunken log2 fold change (sequence: RRIRQRPPRLPRPRPRPPLLPRP ) is -0.114

# shrunken log2 fold change (sequence: RRIRLRPPRLPRPRPRPPEMPRP ) is 1.71

# shrunken log2 fold change (sequence: RRIRCRPPRLPRPRPRPKSPPRP ) is -0.1

# shrunken log2 fold change (sequence: RRIRRRPPRLPRPRPRPMIAPRP ) is 0.121

# shrunken log2 fold change (sequence: RRIRYRPPRLPRPRPRPRKLPRP ) is -0.14

# shrunken log2 fold change (sequence: RRIRPRPPRLPRPRPRPWSDPRP ) is -0.267

# shrunken log2 fold change (sequence: RRIRARPPRLPRPRPRPCGAPRP ) is 0.737

# shrunken log2 fold change (sequence: RRIRSRPPRLPRPRPRPAQNPRP ) is 0.241

# shrunken log2 fold change (sequence: RRIRMRPPRLPRPRPRPIMLPRP ) is -0.351

# shrunken log2 fold change (sequence: RRIRTRPPRLPRPRPRPPHDPRP ) is 0.275

# shrunken log2 fold change (sequence: RRIRVRPPRLPRPRPRPHVIPRP ) is -0.0921

# shrunken log2 fold change (sequence: RRIRKRPPRLPRPRPRPIWLPRP ) is 0.00836

# shrunken log2 fold change (sequence: RRIRPRPPRLPRPRPRPETHPRP ) is 0.221
